TARGET_DESC: Peptidyl-prolyl cis-trans isomerase FKBP5 (Homo sapiens, UniProt Q13451)
Sequence (Q13451 whole entry, the tested form may be a part): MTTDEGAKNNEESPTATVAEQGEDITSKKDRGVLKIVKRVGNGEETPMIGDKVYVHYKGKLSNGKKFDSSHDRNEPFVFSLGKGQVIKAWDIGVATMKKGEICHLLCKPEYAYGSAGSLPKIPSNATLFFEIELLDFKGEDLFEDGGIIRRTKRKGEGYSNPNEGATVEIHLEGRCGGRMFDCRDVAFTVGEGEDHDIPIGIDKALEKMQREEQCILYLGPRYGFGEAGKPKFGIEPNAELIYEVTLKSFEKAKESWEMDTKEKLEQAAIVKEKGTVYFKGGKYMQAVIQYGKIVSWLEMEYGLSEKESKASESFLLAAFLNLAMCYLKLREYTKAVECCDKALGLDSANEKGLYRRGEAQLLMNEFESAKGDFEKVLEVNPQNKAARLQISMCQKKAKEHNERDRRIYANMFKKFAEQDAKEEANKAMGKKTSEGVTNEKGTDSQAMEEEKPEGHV
TEST_DETAILS: Binding affinity to FKBP51 FK1 domain (unknown origin) assessed as dissociation constant at 25 degreeC by isothermal titration calorimetric analysis
READOUT_KIND: pKd
In textbook form, pKd equals minus log to base ten of the concentration in mol/L.

{"SUBSTANCE_SMILES": "COc1ccc(CC[C@H]2OC(=O)[C@@H]3CCCCN3C(=O)[C@@H](C3CCCCC3)c3cc(OC)c(OC)c(c3)OC[C@@H](O)[C@H](O)COc3cccc2c3)cc1OC", "OBSERVED_MEASUREMENT": 8.16}

From here, focus on the item given below.
query: Provide pKd value for the following compound: COc1ccc(CC[C@@H](OC(=O)[C@@H]2CCCCN2C(=O)[C@H](c2cc(OC)c(OC)c(OC)c2)C2CCCCC2)c2cccc(OCC(=O)O)c2)cc1OC
result: 8.01

###

TEST_DETAILS: Selectivity ratio of Kd for displacement of fluorescent tracer 5-(3-(4-((1S,5S,6S)-10-(3,5-dichlorophenylsulfonyl)-2-oxo-3-(pyridin-3-ylmethyl)-3,10-diazabicyclo[4.3.1]decan-5-yl)-1H-1,2,3-triazol-1-yl)propylcarbamoyl)-2-(6-(dimethylamino)-3-(dimethyliminio)-3H-xanthen-9-yl)benzoate from recombinant full length C-terminal FLAG-tagged FKBP52 (unknown origin) to Kd for displacement of fluorescent tracer 5-(3-(4-((1S,5S,6S)-10-(3,5-dichlorophenylsulfonyl)-2-oxo-3-(pyridin-3-ylmethyl)-3,10-diazabicyclo[4.3.1]decan-5-yl)-1H-1,2,3-triazol-1-yl)propylcarbamoyl)-2-(6-(dimethylamino)-3-(dimethyliminio)-3H-xanthen-9-yl)benzoate from recombinant full length C-terminal FLAG-tagged FKBP51 (unknown origin)
READOUT_KIND: Selectivity ratio
Returns: the value as a bare number; no unit string appended.

{"SUBSTANCE_SMILES": "COc1ccc(CC[C@H]2OC(=O)[C@@H]3CCCCN3C(=O)[C@@H](C3CCCCC3)c3cc(OC)c(OC)c(c3)OCCC(=O)CCOc3cccc2c3)cc1OC", "Selectivity ratio": 175}
{"SUBSTANCE_SMILES": "COc1ccc(CC[C@H]2OC(=O)[C@@H]3CCCCN3C(=O)[C@@H](C3CCCCC3)c3cc(OC)c(OC)c(c3)OC[C@H](O)[C@@H](O)COc3cccc2c3)cc1OC", "Selectivity ratio": 227}
{"SUBSTANCE_SMILES": "COc1ccc(CC[C@H]2OC(=O)[C@@H]3CCCCN3C(=O)[C@@H](C3CCCCC3)c3cc(OC)c(OC)c(c3)OCCC(=O)COc3cccc2c3)cc1OC", "Selectivity ratio": 294}
{"SUBSTANCE_SMILES": "COc1ccc(CC[C@H]2OC(=O)[C@@H]3CCCCN3C(=O)[C@@H](C3CCCCC3)c3cc(OC)c(OC)c(c3)OCCOCC(=O)CCOc3cccc2c3)cc1OC", "Selectivity ratio": 138}

In the following, a different compound is considered.
query: Give the value of Selectivity ratio reported for the following: COc1ccc(CC[C@H]2OC(=O)[C@@H]3CCCCN3C(=O)[C@@H](C3CCCCC3)c3cc(OC)c(OC)c(c3)OC[C@@H](O)[C@H](O)COc3cccc2c3)cc1OC
result: 103

###

TEST_DETAILS: Selectivity ratio of Kd for displacement of fluorescent tracer 5-(3-(4-((1S,5S,6S)-10-(3,5-dichlorophenylsulfonyl)-2-oxo-3-(pyridin-3-ylmethyl)-3,10-diazabicyclo[4.3.1]decan-5-yl)-1H-1,2,3-triazol-1-yl)propylcarbamoyl)-2-(6-(dimethylamino)-3-(dimethyliminio)-3H-xanthen-9-yl)benzoate from recombinant full length C-terminal FLAG-tagged FJBP12 to Kd for displacement of fluorescent tracer 5-(3-(4-((1S,5S,6S)-10-(3,5-dichlorophenylsulfonyl)-2-oxo-3-(pyridin-3-ylmethyl)-3,10-diazabicyclo[4.3.1]decan-5-yl)-1H-1,2,3-triazol-1-yl)propylcarbamoyl)-2-(6-(dimethylamino)-3-(dimethyliminio)-3H-xanthen-9-yl)benzoate from recombinant full length C-terminal FLAG-tagged FKBP51 (unknown origin)
Attribute: Selectivity ratio
Respond with the number and no other words.

query: Specify measured Selectivity ratio for COc1ccc(CC[C@H]2OC(=O)[C@@H]3CCCCN3C(=O)[C@@H](C3CCCCC3)c3cc(OC)c(c(OC)c3)OCCCCCOc3cccc2c3)cc1OC .
result: 12.5

query: Quick one: give measured Selectivity ratio for COc1ccc(CC[C@H]2OC(=O)[C@@H]3CCCCN3C(=O)[C@@H](C3CCCCC3)c3cc(OC)c(OC)c(c3)OCCC(=O)COc3cccc2c3)cc1OC
result: 4.9

query: Please report the measured Selectivity ratio for COc1ccc(CC[C@H]2OC(=O)[C@@H]3CCCCN3C(=O)[C@@H](C3CCCCC3)c3cc(OC)c(c(OC)c3)OCC(O)C(O)COc3cccc2c3)cc1OC (mixture of isomers)
result: 6.5

query: Give Selectivity ratio for the following compound: COc1ccc(CC[C@H]2OC(=O)[C@@H]3CCCCN3C(=O)[C@@H](C3CCCCC3)c3cc(OC)c(OC)c(c3)OCCCCCOc3cccc2c3)cc1OC
result: 2.7
